Target: Influenza A virus M2 proton channel (A/TW/4845/1999 H1N1)
Assay: M2 proton channel binding, NMR based, influenza A virus H1N1 strain (AID 1549)
Conditions: NMR binding screen, M2 protein
Calls of active or inactive are those of the source. No rule for the calls is given here.
Provide the recorded Kd for the entries that follow.

Enquiry: Requested read-out Kd, target or system Influenza A virus M2 proton channel (A/TW/4845/1999 H1N1), entry O=C(NCc1ccccc1)c1ccc[n+]([O-])c1
Return: > 4 mM (inactive)

Enquiry: Requested read-out Kd, target or system Influenza A virus M2 proton channel (A/TW/4845/1999 H1N1), entry COc1cccc(NC(=O)c2ncn[nH]2)c1
Return: > 4 mM (inactive)

Enquiry: Requested read-out Kd, target or system Influenza A virus M2 proton channel (A/TW/4845/1999 H1N1), entry COc1cc(O)c(C(C)=O)c(OC)c1
Return: > 4 mM (inactive)

Enquiry: Requested read-out Kd, target or system Influenza A virus M2 proton channel (A/TW/4845/1999 H1N1), entry CCOC(=O)c1cc(C)[nH]n1
Return: > 4 mM (inactive)

Enquiry: Requested read-out Kd, target or system Influenza A virus M2 proton channel (A/TW/4845/1999 H1N1), entry CC(C)=CCc1c(O)cc2occ(-c3ccc4c(c3)OCO4)c(=O)c2c1O
Return: > 4 mM (inactive)

Enquiry: Requested read-out Kd, target or system Influenza A virus M2 proton channel (A/TW/4845/1999 H1N1), entry O=C1CSC(=NC(=O)c2ccccc2)N1
Return: > 4 mM (inactive)

Enquiry: Requested read-out Kd, target or system Influenza A virus M2 proton channel (A/TW/4845/1999 H1N1), entry CSc1nnnn1-c1cccc(O)c1
Return: > 4 mM (inactive)

Enquiry: Requested read-out Kd, target or system Influenza A virus M2 proton channel (A/TW/4845/1999 H1N1), entry Cc1cccc(N2C(=O)CCC2=O)n1
Return: > 4 mM (inactive)

Enquiry: Requested read-out Kd, target or system Influenza A virus M2 proton channel (A/TW/4845/1999 H1N1), entry COc1cc(O)ccc1C(C)=O
Return: > 4 mM (inactive)

Enquiry: Requested read-out Kd, target or system Influenza A virus M2 proton channel (A/TW/4845/1999 H1N1), entry NC(=O)c1ccc(SCC(=O)O)c([N+](=O)[O-])c1
Return: > 4 mM (inactive)

Enquiry: Requested read-out Kd, target or system Influenza A virus M2 proton channel (A/TW/4845/1999 H1N1), entry COCc1cc(=O)oc2cc(N)ccc12
Return: > 4 mM (inactive)

Enquiry: Requested read-out Kd, target or system Influenza A virus M2 proton channel (A/TW/4845/1999 H1N1), entry CN(C)c1ccc(C2CC(=O)CC(=O)C2)cc1
Return: > 4 mM (inactive)

Enquiry: Requested read-out Kd, target or system Influenza A virus M2 proton channel (A/TW/4845/1999 H1N1), entry O=C(Nc1ccccc1C(F)(F)F)c1cnccn1
Return: > 4 mM (inactive)

Enquiry: Requested read-out Kd, target or system Influenza A virus M2 proton channel (A/TW/4845/1999 H1N1), entry CC(=O)c1ccc(CC2SC(N)=NC2=O)cc1 (centres undefined)
Return: > 4 mM (inactive)

---

Target: Influenza A virus M2 proton channel (A/TW/4845/1999 H1N1)
Assay: M2 proton channel binding, NMR based, influenza A virus H1N1 strain (AID 1549)
Details: NMR binding screen, M2 protein
Calls of active or inactive are those of the source. How the calls were made is not given here.
PARAMETER: Kd

Enquiry: Consider the compound CC(=O)Nc1ccc(NC(=O)N2CCOCC2)cc1 and give its measured Kd.
Return: > 4 mM (inactive)

Enquiry: Consider the compound Nc1ccc2[nH]ccc2c1 and give its measured Kd.
Return: > 4 mM (inactive)

Enquiry: Consider the compound Oc1cc(O)c2c(c1)O[C@H](c1ccc(O)c(O)c1)[C@@H](O)C2 and give its measured Kd.
Return: > 4 mM (inactive)

Enquiry: Consider the compound Fc1ccc(F)c(CN2CCN(c3ncccn3)CC2)c1 and give its measured Kd.
Return: > 4 mM (inactive)

Enquiry: Consider the compound Cc1ccc2cc(C(=O)O)ccc2n1 and give its measured Kd.
Return: > 4 mM (inactive)

Enquiry: Consider the compound COC(=O)c1cncc(C(=O)OC)c1 and give its measured Kd.
Return: > 4 mM (inactive)

Enquiry: Consider the compound O=C(O)c1cc2ccccc2cn1 and give its measured Kd.
Return: > 4 mM (inactive)

Enquiry: Consider the compound Cn1c(=O)n(C)c2nc([N+](=O)[O-])c(Cl)cc21 and give its measured Kd.
Return: > 4 mM (inactive)

Enquiry: Consider the compound O=C(O)C1COc2ccccc2C1 (centres undefined) and give its measured Kd.
Return: > 4 mM (inactive)

Enquiry: Consider the compound S=c1nc(Cc2ccccc2)[nH][nH]1 and give its measured Kd.
Return: > 4 mM (inactive)

Enquiry: Consider the compound OCC1CCN(Cc2ccccc2)CC1 and give its measured Kd.
Return: > 4 mM (inactive)

Enquiry: Consider the compound COC(=O)C1CCc2ccccc2N1 (centres undefined) and give its measured Kd.
Return: > 4 mM (inactive)

Enquiry: Consider the compound COc1ccc(-c2cc(=O)c3c(O)cc(O)c(-c4cc(-c5cc(=O)c6c(O)cc(O)cc6o5)ccc4OC)c3o2)cc1 and give its measured Kd.
Return: > 4 mM (inactive)

Enquiry: Consider the compound Cc1nc2ccc(C(=O)O)cc2nc1C and give its measured Kd.
Return: > 4 mM (inactive)

Enquiry: Consider the compound Cc1nc2cc(NC(=O)Nc3nccs3)ccc2n1C and give its measured Kd.
Return: > 4 mM (inactive)

Enquiry: Consider the compound O=C(c1ccc(F)cc1)N1CCOCC1 and give its measured Kd.
Return: > 4 mM (inactive)

Enquiry: Consider the compound O=C(O)C1(S(=O)(=O)c2ccccc2)CC1 and give its measured Kd.
Return: > 4 mM (inactive)

Enquiry: Consider the compound Nc1c(F)c(F)nc(F)c1F and give its measured Kd.
Return: > 4 mM (inactive)

Enquiry: Consider the compound CC(CCC(=O)O)[C@H]1CCC2C3C(C[C@H](O)[C@@]21C)[C@@]1(C)CC[C@@H](O)C[C@H]1C[C@H]3O (some centres undefined) and give its measured Kd.
Return: > 4 mM (inactive)

Enquiry: Consider the compound O=C(CC1NCCNC1=O)Nc1ccccc1 (centres undefined) and give its measured Kd.
Return: > 4 mM (inactive)

Enquiry: Consider the compound O=c1cc(-c2cc(O)c(O)c(O)c2)oc2cc(O)cc(O)c12 and give its measured Kd.
Return: > 4 mM (inactive)

Enquiry: Consider the compound O=C(NCC1CCCCC1)c1ccco1 and give its measured Kd.
Return: > 4 mM (inactive)

Enquiry: Consider the compound O=c1cc(CO)oc(CN2CCCCC2)c1O and give its measured Kd.
Return: > 4 mM (inactive)

Enquiry: Consider the compound CC1(C)SCC(C(=O)O)N1C=O (centres undefined) and give its measured Kd.
Return: > 4 mM (inactive)

Enquiry: Consider the compound CC[C@H]1CN2CCc3cc(OC)c(OC)cc3C2C[C@@H]1CC1NCCc2cc(OC)c(OC)cc21 (some centres undefined) and give its measured Kd.
Return: > 4 mM (inactive)

Enquiry: Consider the compound CN1CCC(N2CCOCC2)CC1 and give its measured Kd.
Return: > 4 mM (inactive)

Enquiry: Consider the compound CC(C)c1ccccc1NC(=O)c1cnccn1 and give its measured Kd.
Return: > 4 mM (inactive)

Enquiry: Consider the compound Cc1occc1C(=O)NC1CCN(C)CC1 and give its measured Kd.
Return: > 4 mM (inactive)

Enquiry: Consider the compound CSc1cccc(NC(=O)c2c(Cl)cnn2C)c1 and give its measured Kd.
Return: > 4 mM (inactive)

Enquiry: Consider the compound COc1ccccc1-c1noc(-c2ccncc2)n1 and give its measured Kd.
Return: > 4 mM (inactive)

Enquiry: Consider the compound Cc1cc(C)n(CC(=O)O)n1 and give its measured Kd.
Return: > 4 mM (inactive)

Enquiry: Consider the compound O=C(CSC1=NCCS1)N1CCc2ccccc21 and give its measured Kd.
Return: > 4 mM (inactive)

Enquiry: Consider the compound O=C(NCc1ccccc1Br)c1ccco1 and give its measured Kd.
Return: > 4 mM (inactive)

Enquiry: Consider the compound CC(NC(=O)c1cccnc1)c1ccc2c(c1)OCO2 (centres undefined) and give its measured Kd.
Return: > 4 mM (inactive)

Enquiry: Consider the compound Nc1ccc(CN2CCS(=O)(=O)CC2)cc1 and give its measured Kd.
Return: > 4 mM (inactive)

Enquiry: Consider the compound CSc1nnc2c(n1)OC=Nc1ccccc1-2 and give its measured Kd.
Return: > 4 mM (inactive)

Enquiry: Consider the compound O=c1c(-c2ccc(O)cc2)coc2cc(O)ccc12 and give its measured Kd.
Return: > 4 mM (inactive)

Enquiry: Consider the compound COc1ccc([C@H]2Oc3c(I)c(OC)cc(OC)c3C[C@@H]2O)cc1OC and give its measured Kd.
Return: > 4 mM (inactive)

Enquiry: Consider the compound O=c1ccn(Cc2ccccc2)c(=O)n1Cc1ccccc1 and give its measured Kd.
Return: > 4 mM (inactive)

Enquiry: Consider the compound COc1ccc(-c2nnc(-c3ccc(N)cc3)o2)cc1 and give its measured Kd.
Return: > 4 mM (inactive)

Enquiry: Consider the compound O=C(NCCCSc1ncccn1)Nc1ncccn1 and give its measured Kd.
Return: > 4 mM (inactive)

Enquiry: Consider the compound COc1ccc(-c2cc(=O)c3cc(OC)ccc3o2)cc1 and give its measured Kd.
Return: > 4 mM (inactive)

Enquiry: Consider the compound Cc1cc(=O)n2[nH]c(C)cc2n1 and give its measured Kd.
Return: > 4 mM (inactive)

Enquiry: Consider the compound NN1C(=O)CSC1=Nc1ccccc1 and give its measured Kd.
Return: > 4 mM (inactive)

Enquiry: Consider the compound CC(=O)O[C@H]1CC[C@@]2(C)C(CC[C@]3(C)C2CC=C2C4CC(C)(C)CC[C@]4(C)CC[C@]23C)C1(C)C (some centres undefined) and give its measured Kd.
Return: > 4 mM (inactive)

Enquiry: Consider the compound Cc1ccc2[nH]c3nc(=S)[nH]nc3c2c1 and give its measured Kd.
Return: > 4 mM (inactive)

Enquiry: Consider the compound Oc1cnc2ccccc2c1CN1CCOCC1 and give its measured Kd.
Return: > 4 mM (inactive)

Enquiry: Consider the compound Cc1nn2c3ccccc3nc2n(Cc2ccccc2)c1=O and give its measured Kd.
Return: > 4 mM (inactive)

Enquiry: Consider the compound CNC(=S)Nc1ccc2c(c1)OCO2 and give its measured Kd.
Return: > 4 mM (inactive)

Enquiry: Consider the compound COc1ccc(-c2coc3cc(O)ccc3c2=O)c(OC)c1 and give its measured Kd.
Return: > 4 mM (inactive)

Enquiry: Consider the compound NC(=O)c1ccccc1NC(=O)c1cccnc1 and give its measured Kd.
Return: > 4 mM (inactive)

Enquiry: Consider the compound NC(=O)C(=O)Nc1nc(-c2ccccc2)cs1 and give its measured Kd.
Return: > 4 mM (inactive)

Enquiry: Consider the compound OC1CCNC2CCCCC12 (centres undefined) and give its measured Kd.
Return: > 4 mM (inactive)

Enquiry: Consider the compound Cc1ccc(C)n1CCN1CCNCC1 and give its measured Kd.
Return: > 4 mM (inactive)
